Entry source: PubChem BioAssay (NCI)

# System: CCRF-CEM leukemia
# Measurement Protocol: NCI tumour cell line growth inhibition, 48 h
Observation Type: TGI

Here's what some known entries look like.
>>> test_value("Cc1cc(C)nc(NS(=O)(=O)c2ccc(Nc3c4ccccc4nc4c(C(=O)NNCCO)cccc34)cc2)n1")
"> 100 µM"
>>> test_value("CSc1nc(C)c2c(n1)SCC2")
"> 10 µM"
>>> test_value("CC(=O)CC(=O)Nc1ccc2ccccc2c1")
"> 100 µM"
>>> test_value("CC1=NN(C(=O)CC(=O)Nc2ccc(C)cc2)C(=O)C1N=Nc1ccc(C(=O)O)cc1 (centres undefined)")
"> 100 µM"
>>> test_value("COc1cc2c[n+](C)c3c4cc5c(cc4ccc3c2cc1OC)OCO5")
"19.5 µM"

Q: Bench note: what TGI did ClCc1cccc(Cn2cnc3c(NC45CC6CC(CC(C6)C4)C5)ncnc32)c1 show?
Ans: > 69.1 µM

Q: I am curious: what TGI value has been reported for COc1c2nc(CCl)[nH]c(=O)c2c(OC)c2nc(CCl)[nH]c(=O)c12 ?
Ans: > 100 µM

Q: Requested read-out: TGI. Entry: CCOC(=O)C(Cl)(NC(=O)NC(Cl)(C(=O)OCC)C(F)(F)F)C(F)(F)F (centres undefined)
Ans: > 100 µM

Q: I am curious: what TGI value has been reported for Cc1cc([C@H](C#N)c2nc3ccccc3[nH]2)nc(Cl)n1 ?
Ans: > 100 µM

Q: Bench note: what TGI did O=c1c2c(nc3n1CCS3)[nH]c1ccccc12 show?
Ans: > 100 µM

Q: What measured TGI goes with COc1cc2c(cc1OCCCOc1cc3c(cc1OC)C(=O)N1C[C@H](F)C[C@H]1C=N3)N=C[C@@H]1C[C@@H](F)CN1C2=O ?
Ans: 51.7 µM

Q: # get_value(readout='TGI', item= Cn1c([N+](=O)[O-])cnc1/C=C1\Oc2ccccc2C1=O )
Ans: 1.38 µM

Q: Reported TGI, compound O=C1NC(=O)C(Cc2ccccc2)(c2cccnc2)N1 (centres undefined) : ____
Ans: > 100 µM

Q: Can you look up the measured TGI of CCOC(=O)NC(=O)c1cn(CC(=O)NCC(=O)NCC(=O)NCCCN2CCN(CCCNC(=O)CNC(=O)CNC(=O)Cn3cc(C(=O)NC(=O)OCC)c(=O)[nH]c3=O)CC2)c(=O)[nH]c1=O for me?
Ans: > 100 µM

Q: Which measured TGI value corresponds to O=[N+]([O-])c1cc(Cl)c(Cl)c([N+](=O)[O-])c1Cl ?
Ans: > 100 µM

Q: For the compound CCN1CCN(C(=O)[C@]23CC[C@@H](C)[C@H](C)[C@@H]2C2=CC[C@@H]4[C@@]5(C)C/C(=C/c6ccncc6)C(=O)C(C)(C)[C@@H]5CC[C@@]4(C)[C@]2(C)CC3)CC1 , what TGI is on record?
Ans: 6.28 µM

Q: What does the record list as TGI for O=C(Nc1ccc(Cl)cc1)C(=O)C(C(=O)c1ccccc1-c1ccccc1)C1OC(=O)c2ccccc21 (centres undefined) ?
Ans: 58 µM

Q: Item CSc1ccc(C2=NN(C(=O)c3ccc(F)cc3)C(c3ccc(F)cc3)C2)cc1 (centres undefined) has what recorded TGI?
Ans: 6.52 µM

Q: Using the record for CC(=O)O[C@H]1CC[C@H]2[C@@H]3CCC4C(C)=NNC(=O)C4[C@H]3CC[C@]12C (some centres undefined) , report its TGI.
Ans: > 100 µM
